Tested System: Thioredoxin reductase 1, cytoplasmic (Rattus norvegicus)
Measurement Notes: Inhibition of rat liver cytosolic TrxR1 by spectrophotometry
Experimental Setup: read-out: IC50
Would you kindly list pIC50 for each of these compounds?
On this scale, pIC50 is minus log10 of a concentration expressed in M (mol/L).

Entry O=C1c2cccc(O)c2C(=O)c2c(O)cc(CO)cc21 [ALOE-EMODIN] has what pIC50?
3.74

Then Cc1cc(O)c2c(c1)C(=O)c1cccc(O)c1C2=O [CHRYSOPHANOL] ?
3.71

Then Cc1cc(O)c2c(=O)c3c(O)cc(O)c4c5c(O)cc(O)c6c(=O)c7c(O)cc(C)c8c1c2c(c34)c(c78)c65 [HYPERICIN] ?
3.70

Then Cc1cc(O)c2c(=O)c3c(O)cc(O)c4c5c(O)cc(O)c6c(=O)c7c(O)cc(CO)c8c1c2c(c34)c(c65)c78 [PSEUDOHYPERICIN] ?
5.34

Then O=C(O)c1cc(O)c2c(c1)C(=O)c1cccc(O)c1C2=O [RHEIN] ?
4.08

Then COc1cc(O)c2c(c1)C(=O)c1cc(C)cc(O)c1C2=O [PHYSCION] ?
3.73

====

Tested System: Thioredoxin reductase 1, cytoplasmic (Rattus norvegicus, UniProt O89049)
Sequence (O89049 whole entry): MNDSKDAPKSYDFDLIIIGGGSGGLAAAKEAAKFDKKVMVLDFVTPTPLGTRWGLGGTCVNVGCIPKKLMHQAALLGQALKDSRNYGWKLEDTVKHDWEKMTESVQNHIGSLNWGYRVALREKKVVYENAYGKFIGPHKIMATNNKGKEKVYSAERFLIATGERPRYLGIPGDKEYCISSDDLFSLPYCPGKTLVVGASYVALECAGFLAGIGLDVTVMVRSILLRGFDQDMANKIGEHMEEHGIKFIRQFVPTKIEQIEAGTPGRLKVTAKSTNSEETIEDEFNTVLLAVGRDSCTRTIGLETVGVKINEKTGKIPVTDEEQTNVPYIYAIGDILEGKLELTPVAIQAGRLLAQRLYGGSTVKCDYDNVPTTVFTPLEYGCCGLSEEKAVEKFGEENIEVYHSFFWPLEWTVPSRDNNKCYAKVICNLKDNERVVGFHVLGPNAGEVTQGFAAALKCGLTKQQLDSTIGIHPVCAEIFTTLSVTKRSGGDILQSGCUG
Measurement Notes: Mixed-type inhibition of rat liver cytosolic TrxR1 by Lineweaver-Burk plot analysis
Recorded Metric: Ki (nM)
Just the number in nM, nothing appended.

Provide the documented Ki with Thioredoxin reductase 1, cytoplasmic (Rattus norvegicus, UniProt O89049) as the system for Cc1cc(O)c2c(=O)c3c(O)cc(O)c4c5c(O)cc(O)c6c(=O)c7c(O)cc(CO)c8c1c2c(c34)c(c65)c78 [PSEUDOHYPERICIN]
1900

====

Tested System: Thioredoxin reductase 2, mitochondrial (Rattus norvegicus)
Sequence (Q9Z0J5 whole entry): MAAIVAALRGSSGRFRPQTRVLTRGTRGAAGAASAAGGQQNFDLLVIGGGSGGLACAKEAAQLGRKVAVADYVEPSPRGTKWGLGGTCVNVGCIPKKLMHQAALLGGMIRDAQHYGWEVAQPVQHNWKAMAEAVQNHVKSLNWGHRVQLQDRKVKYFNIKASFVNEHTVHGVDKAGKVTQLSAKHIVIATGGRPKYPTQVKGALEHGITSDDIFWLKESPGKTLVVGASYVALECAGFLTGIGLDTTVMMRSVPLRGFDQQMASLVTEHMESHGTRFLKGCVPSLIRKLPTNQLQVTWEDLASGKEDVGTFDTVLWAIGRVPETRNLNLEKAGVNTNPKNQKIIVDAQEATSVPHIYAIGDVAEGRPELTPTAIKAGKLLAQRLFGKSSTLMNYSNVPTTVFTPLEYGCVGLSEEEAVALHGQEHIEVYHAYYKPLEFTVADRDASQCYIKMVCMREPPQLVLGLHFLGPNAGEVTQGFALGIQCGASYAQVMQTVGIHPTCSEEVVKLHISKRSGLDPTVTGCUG
Measurement Notes: Inhibition of rat liver mitochondrial TrxR2 by spectrophotometry
Experimental Setup: read-out: IC50
Would you kindly list pIC50 for each of these compounds?
On this scale, pIC50 is minus log10 of a concentration expressed in M (mol/L).

Entry O=C(O)c1cc(O)c2c(c1)C(=O)c1cccc(O)c1C2=O has what pIC50?
3.91

Then Cc1cc(O)c2c(c1)C(=O)c1cccc(O)c1C2=O ?
3.74

Then COc1cc(O)c2c(c1)C(=O)c1cc(C)cc(O)c1C2=O ?
3.88

Origin of the recorded values: ChEMBL document CHEMBL1641523
